Each entry below carries its reported pIC50.
Biological target: Sortase A (Staphylococcus aureus, UniProt Q9S446)
Sequence (Q9S446 whole entry): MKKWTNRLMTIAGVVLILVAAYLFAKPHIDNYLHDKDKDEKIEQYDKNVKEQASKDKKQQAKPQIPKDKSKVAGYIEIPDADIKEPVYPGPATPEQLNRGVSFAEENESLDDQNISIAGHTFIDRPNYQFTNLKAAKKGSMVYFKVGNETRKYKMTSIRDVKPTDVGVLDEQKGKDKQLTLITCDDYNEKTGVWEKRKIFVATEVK
Assay: Inhibition of C-terminal 6His-tagged recombinant Staphylococcus aureus SrtA with 1 to 59 residues truncated from N-terminus expressed in Escherichia coli BL21 (DE3) using dabcyl-QALPETGEE-edans as substrate preincubated for 1 hr followed by substrate addition and measured for 1 hr by FRET assay
pIC50: −log10 of the molar value.

COMPOUND_SMILES: Cc1cc(C(=O)/C(=N/Nc2ccc(Cl)c(Cl)c2)C(=O)O)no1
OBSERVABLE: pIC50
RESULT: < 3.70
//
COMPOUND_SMILES: CCn1nc(C)cc1C(=O)/C(=N/Nc1ccc(Cl)c(Cl)c1)C(=O)O
OBSERVABLE: pIC50
RESULT: < 3.70

// below: pIC50 requested for another molecule
Which pIC50 is listed for "CCOC(=O)/C(=N\Nc1ccc(Cl)c(Cl)c1)C(=O)c1cc(C)nn1CC" ?
< 3.70

// provenance: ChEMBL document CHEMBL5226340
